target desc: Calcitonin gene-related peptide type 1 receptor (Homo sapiens, UniProt O60894+Q16602)
Sequence (Q16602 whole entry, one chain of several): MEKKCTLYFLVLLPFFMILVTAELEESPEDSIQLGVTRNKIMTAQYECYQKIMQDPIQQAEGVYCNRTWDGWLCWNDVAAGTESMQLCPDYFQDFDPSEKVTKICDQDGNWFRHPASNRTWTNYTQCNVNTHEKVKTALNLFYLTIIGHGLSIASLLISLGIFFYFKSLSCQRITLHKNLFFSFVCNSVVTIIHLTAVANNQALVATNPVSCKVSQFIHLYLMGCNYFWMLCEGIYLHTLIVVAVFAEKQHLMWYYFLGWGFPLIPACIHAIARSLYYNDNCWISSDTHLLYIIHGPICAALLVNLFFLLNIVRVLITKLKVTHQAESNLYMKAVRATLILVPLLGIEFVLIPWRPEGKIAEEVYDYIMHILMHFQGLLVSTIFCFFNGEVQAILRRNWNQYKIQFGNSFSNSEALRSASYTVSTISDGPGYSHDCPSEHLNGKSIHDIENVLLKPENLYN
procedure details: Antagonist activity at human recombinant CGRP receptor expressed in HEK293 cells assessed as inhibition of CGRP-stimulated increase of intracellular cAMP level in absence of human serum albumin
Format: functional, cell-based
assay readout: Ki
Note: state the figure and append the unit.

// query Suppose we examine the compound O=C(Cc1nnc(-c2cc(Cl)cc(C(F)(F)F)c2)o1)N1CCC(n2c(=O)[nH]c3ncccc32)CC1 ; what Ki value has been reported?
// result 3.98 nM

// query Suppose we examine the compound O=C(Cc1nnc(-c2cc(Cl)cc(Cl)c2)o1)N1CCC(n2c(=O)[nH]c3ncccc32)CC1 ; what Ki value has been reported?
// result 15.8 nM

// query Suppose we examine the compound O=C(Cc1nnc(-c2cc(F)cc(F)c2)o1)N1CCC(n2c(=O)[nH]c3ncccc32)CC1 ; what Ki value has been reported?
// result 126 nM

// query Suppose we examine the compound O=C(Cc1nnc(-c2cc(Cl)cc(N3CCOCC3)c2)o1)N1CCC(n2c(=O)[nH]c3ncccc32)CC1 ; what Ki value has been reported?
// result 6.31 nM

###

procedure details: Half life in rat at 1 mg/kg, iv
Format: ADME, organism-based
Set-up: dose 1 mg/kg, route intravenous
test parameters: in vivo
assay readout: half-life (h)
Give the value, in units of h, as a plain number.

CN(C)CCOc1cc(Cl)cc(-c2nnc(CC(=O)N3CCC(N4CCc5ccccc5NC4=O)CC3)o2)c1	1.9

// query Suppose we examine the molecule O=C(Cc1nnc(-c2cc(Cl)cc(C(F)(F)F)c2)o1)N1CCC(n2c(=O)[nH]c3ncccc32)CC1 ; what half-life value has been reported?
// result 0.5

###

procedure details: Bioavailability in rat at 10 mg/kg, po in 5% N-Methyl-2-pyrrolidone, 80% Poly(ethylene glycol400 diluted to volume with 20% vitamin E TPGS in water
Assay type: ADME, organism-based
test parameters: in vivo
assay readout: bioavailability (%)
Give the value, in units of %, as a plain number.

// query Suppose we examine the compound O=C(Cc1nnc(-c2cc(Cl)cc(C(F)(F)F)c2)o1)N1CCC(n2c(=O)[nH]c3ncccc32)CC1 ; what bioavailability value has been reported?
// result 20

###

target desc: Calcitonin gene-related peptide type 1 receptor (Homo sapiens, UniProt O60894+Q16602)
procedure details: Antagonist activity at human recombinant CGRP receptor expressed in HEK293 cells assessed as inhibition of CGRP-stimulated increase of intracellular cAMP level in absence of human serum albumin
Type: functional, cell-based
assay readout: log10(Ki) (log10 of the value in nM)
All values: base-10 log of Ki in nM.

// query Suppose we examine the compound CN(C)CCOc1cc(Cl)cc(-c2nnc(CC(=O)N3CCC(n4c(=O)[nH]c5ncccc54)CC3)o2)c1 ; what log10(Ki) value has been reported?
// result 0.70

// query Suppose we examine the compound CN(C)CCOc1cc(Cl)cc(-c2nnc(CC(=O)N3CCC(N4CCc5ccccc5NC4=O)CC3)o2)c1 ; what log10(Ki) value has been reported?
// result 1.10

// query Suppose we examine the compound COc1ccc(-c2ccccc2)cc1CC(=O)N1CCC(n2c(=O)[nH]c3ncccc32)CC1 ; what log10(Ki) value has been reported?
// result 3.40

// query Suppose we examine the compound O=C(Cc1nnc(-c2cc(Cl)ccc2Cl)o1)N1CCC(n2c(=O)[nH]c3ncccc32)CC1 ; what log10(Ki) value has been reported?
// result 2.10

// query Suppose we examine the compound O=C(Cc1nnc(-c2cc(Cl)cc(-c3ccccc3)c2)o1)N1CCC(n2c(=O)[nH]c3ncccc32)CC1 ; what log10(Ki) value has been reported?
// result 0.40

###

procedure details: Permeability across artificial membrane
Assay type: ADME
test parameters: PAMPA; read-out: permeability
assay readout: Papp (×10⁻⁶ cm/s)
Give the value, in units of ×10⁻⁶ cm/s, as a plain number.

// query Suppose we examine the compound O=C(Cc1nnc(-c2cc(Cl)cc(C3CCN(CC(F)F)CC3)c2)o1)N1CCC(n2c(=O)[nH]c3ncccc32)CC1 ; what Papp value has been reported?
// result 20

// query Suppose we examine the compound O=C(Cc1nnc(-c2cc(Cl)cc(N3CCOCC3)c2)o1)N1CCC(n2c(=O)[nH]c3ncccc32)CC1 ; what Papp value has been reported?
// result 12

// query Suppose we examine the compound CCN1CCC(c2cc(Cl)cc(-c3nnc(CC(=O)N4CCC(n5c(=O)[nH]c6ncccc65)CC4)o3)c2)CC1 ; what Papp value has been reported?
// result 0.5

// query Suppose we examine the compound CN(C)CCOc1cc(Cl)cc(-c2nnc(CC(=O)N3CCC(n4c(=O)[nH]c5ncccc54)CC3)o2)c1 ; what Papp value has been reported?
// result 1.2

// query Suppose we examine the compound CN(C)CCOc1cc(Cl)cc(-c2nnc(CC(=O)N3CCC(N4CCc5ccccc5NC4=O)CC3)o2)c1 ; what Papp value has been reported?
// result 18.5

// query Suppose we examine the compound CN1CCC(c2cc(Cl)cc(-c3nnc(CC(=O)N4CCC(n5c(=O)[nH]c6ncccc65)CC4)o3)c2)CC1 ; what Papp value has been reported?
// result 2.2

// query Suppose we examine the compound Cc1ccc(-c2cc(Cl)cc(-c3nnc(CC(=O)N4CCC(n5c(=O)[nH]c6ncccc65)CC4)o3)c2)cn1 ; what Papp value has been reported?
// result 22

###

procedure details: Cmax in rat at 10 mg/kg, po in 1% methylcellulose
Type: ADME, organism-based
Design: dose 10 mg/kg, route oral
test parameters: in vivo
assay readout: Cmax (nM)
Give the value, in units of nM, as a plain number.

// query Suppose we examine the compound CN(C)CCOc1cc(Cl)cc(-c2nnc(CC(=O)N3CCC(N4CCc5ccccc5NC4=O)CC3)o2)c1 ; what Cmax value has been reported?
// result 250

###

procedure details: Cmax in rat at 10 mg/kg, po in 5% N-Methyl-2-pyrrolidone, 80% Poly(ethylene glycol400 diluted to volume with 20% vitamin E TPGS in water
Assay type: ADME, organism-based
Set-up: dose 10 mg/kg, route oral
test parameters: in vivo
assay readout: Cmax (nM)
Give the value, in units of nM, as a plain number.

// query Suppose we examine the molecule O=C(Cc1nnc(-c2cc(Cl)cc(C(F)(F)F)c2)o1)N1CCC(n2c(=O)[nH]c3ncccc32)CC1 ; what Cmax value has been reported?
// result 700

###

procedure details: Tmax in rat at 10 mg/kg, po in 5% N-Methyl-2-pyrrolidone, 80% Poly(ethylene glycol400 diluted to volume with 20% vitamin E TPGS in water
Format: ADME, organism-based
Set-up: dose 10 mg/kg, route oral
test parameters: in vivo
assay readout: Tmax (h)
Give the value, in units of h, as a plain number.

// query Suppose we examine the compound O=C(Cc1nnc(-c2cc(Cl)cc(C(F)(F)F)c2)o1)N1CCC(n2c(=O)[nH]c3ncccc32)CC1 ; what Tmax value has been reported?
// result 1.5

###

procedure details: Clearance in rat at 1 mg/kg, iv
Format: ADME, organism-based
Set-up: dose 1 mg/kg, route intravenous
test parameters: in vivo
# clearance listing for each entry below
Note: state the figure and append the unit.

CN(C)CCOc1cc(Cl)cc(-c2nnc(CC(=O)N3CCC(N4CCc5ccccc5NC4=O)CC3)o2)c1	50 mL/min/kg

// below: clearance requested for another compound
// query Suppose we examine the compound O=C(Cc1nnc(-c2cc(Cl)cc(C(F)(F)F)c2)o1)N1CCC(n2c(=O)[nH]c3ncccc32)CC1 ; what clearance value has been reported?
// result 33 mL/min/kg

###

target desc: Calcitonin gene-related peptide type 1 receptor (Homo sapiens, UniProt O60894+Q16602)
procedure details: Antagonist activity at human recombinant CGRP receptor expressed in HEK293 cells assessed as inhibition of CGRP-stimulated increase of intracellular cAMP level in absence of human serum albumin
Format: functional, cell-based
# Ki listing for each entry below
Give the value, in units of nM, as a plain number.

Cc1ccc(-c2cc(Cl)cc(-c3nnc(CC(=O)N4CCC(n5c(=O)[nH]c6ncccc65)CC4)o3)c2)cn1	2.51
O=C(Cc1nnc(-c2cc(C(F)(F)F)cc(C(F)(F)F)c2)o1)N1CCC(n2c(=O)[nH]c3ncccc32)CC1	25.1
O=C(Cc1nnc(-c2ccccc2)o1)N1CCC(n2c(=O)[nH]c3ncccc32)CC1	200
O=C(Cc1nnc(-c2cc(F)cc(Cl)c2)o1)N1CCC(n2c(=O)[nH]c3ncccc32)CC1	25.1

// query Which measured Ki belongs to O=C(Cc1nnc(-c2ccccc2Cl)o1)N1CCC(n2c(=O)[nH]c3ncccc32)CC1 , tested on Calcitonin gene-related peptide type 1 receptor (Homo sapiens, UniProt O60894+Q16602)?
// result 501

// query Which measured Ki belongs to O=C(Cc1nnc(-c2cc(-c3ccccc3)cc(N3CCOCC3)c2)o1)N1CCC(n2c(=O)[nH]c3ncccc32)CC1 , tested on Calcitonin gene-related peptide type 1 receptor (Homo sapiens, UniProt O60894+Q16602)?
// result 200

// query Which measured Ki belongs to O=C(Cc1nnc(-c2c(Cl)cccc2Cl)o1)N1CCC(n2c(=O)[nH]c3ncccc32)CC1 , tested on Calcitonin gene-related peptide type 1 receptor (Homo sapiens, UniProt O60894+Q16602)?
// result 794

// query Which measured Ki belongs to O=C(Cc1nnc(-c2ccc(Cl)cc2)o1)N1CCC(n2c(=O)[nH]c3ncccc32)CC1 , tested on Calcitonin gene-related peptide type 1 receptor (Homo sapiens, UniProt O60894+Q16602)?
// result 1000
